# target_or_system: T1, YU-2 gp140 (HIV-1 YU2, UniProt P35961 32-670)
# T1 construct: domain: gp140; also called YU2 gp140 trimer
# measurement_protocol: SPR, gp140 on chip, IgG injected
endpoint_label: pKd
One number for each entry, as −log10 of the molar value.

Examples from the recorded data:
INSERT INTO measurements (binder, experimental_value) VALUES
  ('8ANC195 (antibody, V domains shown, also called 8ANC195HC; 8ANC195KC) VH: QIHLVQSGTEVKKPGSSVTVSCKAYGVNTFGLYAVNWVRQAPGQSLEYIGQIWRWKSSASHHFRGRVLISAVDLTGSSPPISSLEIKNLTSDDTAVYFCTTTSTYDKWSGLHHDGVMAFSSWGQGTLISVSA VL: DIQMTQSPSTLAASIGGTVRVSCRASQSITGNWVAWYQQRPGKAPRLLIYRGAALLGGVPSRFSGSAAGTDFTLTIGNLQAEDFGTFYCQQYDTYPGTFGQGTKVEVKR', 7.46),
  ('8ANC131 (antibody, V domains shown, also called 8ANC131HC; 8ANC131KC) VH: QGQLVQSGGGLKKPGTSVTISCLASEYTFNEFVIHWIRQAPGQGPLWLGLIKRSGRLMTAYNFQDRLRLRRDRSTGTVFMELRGLRPDDTAVYYCARDGLGEVAPDYRYGIDVWGQGSTVIVTA VL: EIVLTQSPATLSLSPGERATLSCRASQGLNFVVWYQQKRGQAPRLLIHAPSGRAPGVPDRFSARGSGTEFSLVISSVEPDDFAIYYCQEYSSTPYNFGPGTRVDRKR', 7.78),
  ('8ANC134 (antibody, V domains shown, also called 8ANC134HC; 8ANC134KC) VH: QGQLVQSGGGVKKPGTSVTISCLASEYTFNEFVIHWIRQAPGQGPVWLGLIKRSGRLMTSYKFQDRLSLRRDRSTGTVFMELRGLRLDDTAVYYCARDGLGEVAPAYLYGIDAWGQGSTVIVTS VL: EIVLTQSPATLSLSPGERATLSCRASQGLNFVVWYQQKGGQAPRLLIHGPTDRAPGVPDRFSARGSGTEFSLVISSVEPDDFALYYCQEYSSTPYNFGPGTRVDRKR', 6.95);

Provide pKd values for the following items, in order.
1. 1B2530 (antibody, V domains shown, also called LSSB2530HC; LSSB2530LC) VH: QVRLEQSGAAMRKPGASVTLSCQASGYNFVKYIIHWVRQKPGLGFEWVGMIDPYRGRPWSAHKFQGRLSLSRDTSMEILYMTLTSLKSDDTATYFCARAEAASDSHSRPIMFDHWGQGSRVTVSS VL: QSALTQPPSASGAPGQRVTISCSGGPSNVGGNYVYWYRQFPGTAPTLLILRDDQRPSGVPDRFSASKSGNSASLAISGLRPDDEGFYFCATYDSDGSIRLFGGGTALTVLS
2. 3BNC156 (antibody, V domains shown, also called 3BNC156HC; 3bnc156kc) VH: QVQLVQSGAALKKPGASLRISCQTYGYKFTDHLIYWWRQAPGQGLEWIGWIKPETGQPSYSYRFQGRVSLTRDTFEEIVFMDLRGLRSDDTAIYFCARRHSDYCDFDVWGGGSQVIVSS VL: DIQMTQSPSSLSASVGDTVTITCQTNKGYLNWYQQKRGRAPKLLMYDGSKLVTGVPSRLSGRRWGTQYNLTIGSLQPEDIATYYCQVYEFFGPGTRLDLKR
3. NIH45-46 (antibody, V domains shown) VH: QVRLSQSGGQMKKPGESMRLSCRASGYEFLNCPINWIRLAPGRRPEWMGWLKPRGGAVNYARKFQGRVTMTRDVYSDTAFLELRSLTSDDTAVYFCTRGKYCTARDYYNWDFEH VL: EIVLTQSPATLSLSPGETAIISCRTSQSGSLAWYQQRPGQAPRLVIYSGSTRAAGIPDRFSGSRWGADYNLSISNLESGDFGVYYCQQYEFFG
4. 12A12 (antibody, V domains shown, also called 12A12HC; 12a12kc) VH: SQQLVQSGTQVKKPGASVRISCQASGYSFTDYVLHWWRQAPGQGLEWMGWIKPVYGARNYARRFQGRINFDRDIYREIAFMDLSGLRSDDTALYFCARDGSGDDTSWHLDPWGQGTLVIVSA VL: DIQMTQSPSSLSASVGDRVTITCQAGQGIGSSLQWYQQKPGKAPKLLVHGASNLHRGVPSRFSGSGFHTTFSLTISGLQRDDFATYFCAVLEFFGPGTKVEIKR

Result ::
1. 7.47
2. 6.76
3. 8.17
4. 9.50
